Tested on: expanded OPCs
Experiment: cells
Conditions: alamarBlue viability of expanded OPCs, compound at 1 µM, relative to DMSO control
readout label: 1 µM (% DMSO)
// return numeric value only (unit: % DMSO, not printed)

Below, 3 compounds whose answers are already recorded.
{"compound": "C=C(CC)C(=O)c1ccc(OCC(=O)O)c(Cl)c1Cl", "system under test": "expanded OPCs", "measurement unit": "% DMSO", "assay value": 80.6}
{"compound": "Cc1ccc(C)c(OCCCC(C)(C)C(=O)O)c1", "system under test": "expanded OPCs", "measurement unit": "% DMSO", "assay value": 88.1}
{"compound": "NS(=O)(=O)c1cc2c(cc1Cl)NCNS2(=O)=O [Hydrochlorothiazide]", "system under test": "expanded OPCs", "measurement unit": "% DMSO", "assay value": 97.1}

Quick one: 1 µM (% DMSO) of Clc1ccc(COC(Cn2ccnc2)c2ccc(Cl)cc2Cl)cc1 (centres unmarked) ?
195.6

What does the record list as 1 µM (% DMSO) for COc1cccc2c1C(=O)c1c(O)c3c(c(O)c1C2=O)C[C@@](O)(C(=O)CO)C[C@@H]3O[C@H]1C[C@H](N)[C@H](O)[C@H](C)O1 ?
9.6

Return reported 1 µM (% DMSO); argument: COc1c2occc2cc2ccc(=O)oc12
90.5

Consider the compound Nc1nc(O)c2ncn(COC(CO)CO)c2n1 and give its measured 1 µM (% DMSO).
100.7

Consider the compound shown here: O.O.O=C1N=C([O-])CN1/N=C/c1ccc(-c2ccc([N+](=O)[O-])cc2)o1.[Na+] [Dantrolene sodium salt dihydrate] What is its recorded 1 µM (% DMSO)?
100.3

I have this compound here, CC(C)(C)NCC(O)COc1cccc2c1CC(O)C(O)C2 (centres unmarked) , and I need its recorded 1 µM (% DMSO).
95.3

Param item = OCCN(CCO)c1nc(N2CCCCC2)c2nc(N(CCO)CCO)nc(N3CCCCC3)c2n1 ; retrieve measured 1 µM (% DMSO).
102.2

Any idea what its 1 µM (% DMSO) is? The compound is CO[C@H]1/C=C/O[C@@]2(C)Oc3c(C)c(O)c4c(O)c(c(/C=N/N5CCN(C6CCCC6)CC5)c(O)c4c3C2=O)NC(=O)/C(C)=C\C=C\[C@H](C)[C@H](O)[C@@H](C)[C@@H](O)[C@@H](C)[C@H](OC(C)=O)[C@@H]1C
78.4

----------
System: expanded OPCs
Assay: cells
Settings: Rattus norvegicus, 72 h, read-out: 10 µM (% DMSO), alamarBlue viability, NCC library compound at 10 µM, sheet "All Tox data"
Structures can show the parent of a compound that is named as a salt.
viability at 10 µM vs 10%: less than gives Condition met; not less than gives Condition not met.

Worked examples follow.
{"compound": "COc1ccc(CN2CCN(C(c3ccc(F)cc3)c3ccc(F)cc3)CC2)c(OC)c1OC [Lomerizine]", "system under test": "expanded OPCs", "category": "Condition not met"}
{"compound": "C=C1/C(=C\\C=C2/CCC[C@]3(C)[C@@H]([C@H](C)CCCC(C)(C)O)CC[C@@H]23)C[C@@H](O)C[C@@H]1O [Calcitriol]", "system under test": "expanded OPCs", "category": "Condition not met"}
{"compound": "COC(=O)C[C@](O)(CCCC(C)(C)O)C(=O)O[C@@H]1C(OC)=C[C@]23CCCN2CCc2cc4c(cc2[C@H]13)OCO4 [Homoharringtonine]", "system under test": "expanded OPCs", "category": "Condition met"}
{"compound": "CCOC(=O)C1=C(C)NC(C)=C(C(=O)OCC)C1c1ccccc1/C=C/C(=O)OC(C)(C)C [Lacidipine]", "system under test": "expanded OPCs", "category": "Condition met"}
{"compound": "CC1Cc2ccccc2N1NC(=O)c1ccc(Cl)c(S(N)(=O)=O)c1 (centres unmarked) [Indapamide]", "system under test": "expanded OPCs", "category": "Condition not met"}

Bench note: check whether O=C1CN2Cc3c(ccc(Cl)c3Cl)N=C2N1 [Anagrelide hydrochloride] shows viability at 10 µM below 10%
Condition not met

Here's an entry: CCOC(=O)C1=C(COCCN)NC(C)=C(C(=O)OC)C1c1ccccc1Cl (centres unmarked) [Amlodipine] . Is its viability at 10 µM below 10%?
Condition met

Criterion: viability at 10 µM strictly below 10%. Is it met by c1ccc(-c2ccc(C(c3ccccc3)n3ccnc3)cc2)cc1 (centres unmarked) [Bifonazole, reference compound] ?
Condition not met

----------
System: expanded OPCs
Experiment: cells
Settings: alamarBlue viability of expanded OPCs, compound at 10 µM, relative to DMSO control
readout label: 10 µM (% DMSO)
Report the figure in % DMSO without appending any unit label.

{"compound": "CN1CCN(CC/C=C2/c3ccccc3Sc3ccc(S(=O)(=O)N(C)C)cc32)CC1", "measurement unit": "% DMSO", "10 µM (% DMSO)": 16.9}

State the recorded 10 µM (% DMSO) for this entry: C[C@@H]1C[C@H]2[C@@H]3CCC4=CC(=O)C=C[C@]4(C)[C@@]3(F)[C@@H](O)C[C@]2(C)[C@@]1(O)C(=O)CO [Dexamethazone]
98.4

Requested field: 10 µM (% DMSO). Item: Oc1cc(Cl)ccc1Oc1ccc(Cl)cc1Cl
9.2

----------
Test system: expanded OPCs
Experiment: cells
Conditions: Rattus norvegicus, 72 h, read-out: 10 µM (% DMSO), alamarBlue viability, NCC library compound at 10 µM, sheet "All Tox data"
Description: Having established a consistent assay for measuring OL differentiation in vitro, the next step was to utilize this assay to assess the ability of a wide array of compounds to promote OL differentiation. Prior to library screening, we first established the maximum non-toxic dose of each compound in the library. […] Three days later, we assessed viability of the treated cells by measuring AlamarBlue fluorescence, a measure of cell viability (see “Methods” section). […]
Listing: viability at 10 µM of selected compounds
Respond with a number, then the unit of measure.

// worked examples, viability at 10 µM included
{"compound": "COC(=O)C1=C(C)NC(C)=C(C(=O)OC(C)C)C1c1cccc2nonc12 (stereo not drawn) [Isradipine]", "assay value": "45.6%"}
{"compound": "CC(Oc1c(Cl)cccc1Cl)C1=NCCN1 (stereo not drawn) [lofexidine]", "assay value": "80.6%"}

I am curious: what viability at 10 µM value has been reported for CCCc1nc2c(C)cc(-c3nc4ccccc4n3C)cc2n1Cc1ccc(-c2ccccc2C(=O)O)cc1 [Telmisartan] ?
53.3%

I would be grateful if you could share the reported viability at 10 µM for O=C(O)CCNC(=O)c1ccc(/N=N/c2ccc(O)c(C(=O)O)c2)cc1 [Balsalazide] .
85.1%

----------
System: expanded OPCs
Assay: cells
Conditions: alamarBlue viability of expanded OPCs, compound at 1 µM, relative to DMSO control
// classify: if (1 µM (% DMSO) < 90 % DMSO) 1.0 else 0.0

{"compound": "CC1=C(CC(=O)O)c2cc(F)ccc2/C1=C\\c1ccc([S+](C)[O-])cc1 (centres unmarked)", "category": 0.0}
{"compound": "NC12CC3CC(CC(C3)C1)C2", "category": 1.0}
{"compound": "CC(=O)S[C@@H]1CC2=CC(=O)CC[C@]2(C)[C@H]2CC[C@@]3(C)[C@@H](CC[C@@]34CCC(=O)O4)[C@H]12", "category": 1.0}
{"compound": "C[C@H](CCC(=O)O)[C@H]1CC[C@H]2[C@@H]3[C@H](O)C[C@@H]4C[C@H](O)CC[C@]4(C)[C@H]3CC[C@]12C", "category": 0.0}

Next:
Please determine if CCN(CC)CC#CCOC(=O)C(O)(c1ccccc1)C1CCCCC1 (centres unmarked) [Oxybutynin, reference compound] is below 90 % DMSO in terms of 1 µM (% DMSO).
0.0

----------
Tested on: expanded OPCs
Assay: cells
Conditions: alamarBlue viability of expanded OPCs, compound at 10 µM, relative to DMSO control
readout label: 10 µM (% DMSO)
The figure you give is taken to be in % DMSO; do not add the unit.

{"compound": "Cc1cccc(CN2CCN(C(c3ccccc3)c3ccc(Cl)cc3)CC2)c1 (stereo not drawn)", "measurement unit": "% DMSO", "10 µM (% DMSO)": 9.1}
{"compound": "Nc1nc(F)nc2c1ncn2[C@@H]1O[C@H](CO)[C@@H](O)[C@@H]1O", "measurement unit": "% DMSO", "10 µM (% DMSO)": 77.9}
{"compound": "Cc1ccc(S(=O)(=O)NC(=O)NN2CCCCCC2)cc1 [Tolazamide]", "measurement unit": "% DMSO", "10 µM (% DMSO)": 99.9}
{"compound": "CC(C)NCC(O)c1cc(O)cc(O)c1 (stereo not drawn)", "measurement unit": "% DMSO", "10 µM (% DMSO)": 91.1}
{"compound": "Nc1ccn([C@@H]2CS[C@H](CO)O2)c(=O)n1", "measurement unit": "% DMSO", "10 µM (% DMSO)": 79.4}
{"compound": "NS(=O)(=O)c1cc2c(cc1Cl)N=CNS2(=O)=O [Chlorothiazide]", "measurement unit": "% DMSO", "10 µM (% DMSO)": 89.0}
{"compound": "Cc1ccc(-c2cc(C(F)(F)F)nn2-c2ccc(S(N)(=O)=O)cc2)cc1", "measurement unit": "% DMSO", "10 µM (% DMSO)": 87.2}
{"compound": "CN(C)[C@@H]1C(O)=C(C(N)=O)C(=O)[C@@]2(O)C(O)=C3C(=O)c4c(O)cccc4C[C@H]3C[C@@H]12", "measurement unit": "% DMSO", "10 µM (% DMSO)": 83.0}

# ---- query compound ----
# 10 µM (% DMSO) lookup, item Cc1ccc(C)c(OCCCC(C)(C)C(=O)O)c1
86.3
